Protocol Details: chemical genetic growth profiling, strain panel (AID 1159580);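 further: tested at 20 µM; growth read once vehicle control cultures reached saturation at 30 °C; lower values mean less growth of the strain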
Settings: S. cerevisiae deletion strains, growth OD, locus YLR113W, strain HOG1
In all, about 5,500 compounds went through this assay and about 2,000 (36%) were called active. About 18% were inconclusive and are not listed. No stated cut-off is given here; in the data, active means normalized growth mostly below about 0.91 (no sharp cut-off); inconclusive means no clear call, values can overlap the other calls; inactive means mostly above about 0.92. The list shows a part of the results.
Permitted responses: active, inactive

Solved entries (count: 8):
C[C@H]1CC2C([C@@H](O)C[C@@]3(C)C2CC[C@]3(O)C(=O)COC(=O)CCC(=O)O)[C@@]2(C)C=CC(=O)C=C12 (stereo partly drawn)    inactive
S=C(Nc1cc(Cl)c(Cl)cc1Cl)Nc1ccccc1Br    active
c1ccc2nc(N3CCNCC3)ccc2c1    inactive
Cc1nn(Cc2nnc(SCc3cccc(C(F)(F)F)c3)o2)c(C)c1Br    active
CN(C)CCOC(=O)COc1ccc(Cl)cc1    inactive
S=C(NNc1ccccc1)Nc1cc(Cl)ccc1Cl    inactive
C/C=C/C(=O)N(CC)c1ccccc1C    inactive
CSC(=NNc1ccccc1)NC(=O)c1c(Cl)cccc1Cl    active

Exam item: Check the results log: what was the call for CCN(CC)C(C)CN1c2ccccc2Sc2ccccc21 (stereo not drawn) ?
Marked response: inactive

Exam item: Check the results log: what was the call for O=S(=O)(Nc1ccc(Oc2ccc(OC(F)(F)F)cc2)cc1)c1cccc(Cl)c1 ?
Marked response: active

Exam item: Check the results log: what was the call for CS(=O)(=O)c1sc(C(=O)Sc2ccc(Cl)cc2)c2c1C=CCC2 ?
Marked response: active

Exam item: Check the results log: what was the call for CN(C)CCOC(=O)C(c1ccccc1)C1(O)CCCC1 (stereo not drawn) ?
Marked response: inactive

Exam item: Check the results log: what was the call for O=c1cc(-c2ccccc2)oc2cccc(O)c12 ?
Marked response: inactive

Exam item: Check the results log: what was the call for O=c1cc(-c2ccccc2)oc2c(O)c(O)ccc12 ?
Marked response: inactive

Exam item: Check the results log: what was the call for CN1CC(CNC(=O)OCc2ccccc2)CC2c3cccc4c3c(cn4C)CC21 (stereo not drawn) ?
Marked response: inactive

Hello, the source for this data is PubChem BioAssay AID1159580, in case you need it.
